Target: Ptr2p (Saccharomyces cerevisiae, UniProt P32901)
Sequence (P32901 1-601): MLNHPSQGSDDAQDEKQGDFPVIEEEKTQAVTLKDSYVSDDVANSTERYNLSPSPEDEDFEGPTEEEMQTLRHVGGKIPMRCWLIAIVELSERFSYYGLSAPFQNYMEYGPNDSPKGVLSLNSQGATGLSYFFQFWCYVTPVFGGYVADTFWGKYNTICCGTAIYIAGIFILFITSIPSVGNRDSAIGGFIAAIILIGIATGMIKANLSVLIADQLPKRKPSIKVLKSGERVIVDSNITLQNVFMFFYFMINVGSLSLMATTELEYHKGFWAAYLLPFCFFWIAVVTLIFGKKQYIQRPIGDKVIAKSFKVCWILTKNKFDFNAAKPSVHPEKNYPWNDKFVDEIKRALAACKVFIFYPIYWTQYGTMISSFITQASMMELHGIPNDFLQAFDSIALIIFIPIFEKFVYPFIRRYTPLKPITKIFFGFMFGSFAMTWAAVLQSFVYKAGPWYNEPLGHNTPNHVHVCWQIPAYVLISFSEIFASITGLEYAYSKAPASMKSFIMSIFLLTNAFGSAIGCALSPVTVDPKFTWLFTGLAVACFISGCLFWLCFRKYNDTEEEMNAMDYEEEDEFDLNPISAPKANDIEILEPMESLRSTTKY
Test: Fluorescence-based competitive uptake
Peptide text beside a SMILES is read from it.
measured endpoint: Ki (µM)

[
  {
    "compound": "CC(C)C[C@H](NC(=O)[C@H](C)N)C(=O)O [N-terminal A, C-terminal L, Ala–Leu] (H-Ala-Leu-OH; N-terminus and C-terminus assumed)",
    "assay system": "Ptr2p (Saccharomyces cerevisiae, UniProt P32901)",
    "measured endpoint": "Ki",
    "units text": "µM",
    "numeric value": 310
  }
]

1: CC(C)C[C@H](N)C(=O)NCC(=O)O [N-terminal L, C-terminal G, Leu-Gly] (H-Leu-Gly-OH; N-terminus and C-terminus assumed)
2: N[C@@H](Cc1c[nH]c2ccccc12)C(=O)N[C@@H](Cc1ccccc1)C(=O)O [N-terminal W, C-terminal F, Trp-Phe] (H-Trp-Phe-OH)
Asked: Lower Ki: 1 or 2 ? // output: label of the selected item
Given back: 2

====

Target: UniProtKB P32901
Assay: Fluorescence-based competitive uptake
pKi: −log10 of the molar value. Peptide text beside a SMILES is read from it.
measured endpoint: pKi

Record excerpt, results attached:
[
  {
    "compound": "CC(C)C[C@H](N)C(=O)N[C@@H](Cc1c[nH]cn1)C(=O)O [N-terminal L, C-terminal H, Leu-His] (H-Leu-His-OH; N-terminus and C-terminus assumed)",
    "numeric value": 3.89
  },
  {
    "compound": "CC(C)C[C@H](NC(=O)CN)C(=O)O [N-terminal G, C-terminal L, Gly-Leu]",
    "numeric value": 3.22
  }
]

1: CC(C)C[C@H](NC(=O)[C@@H](N)Cc1c[nH]cn1)C(=O)O [N-terminal H, C-terminal L, His–Leu] (H-His-Leu-OH; N-terminus and C-terminus assumed)
2: C[C@H](N)C(=O)N[C@@H](C)C(=O)O [N-terminal A, C-terminal A, Ala–Ala] (H-Ala-Ala-OH; N-terminus and C-terminus assumed)
3: NCC(=O)NCC(=O)NCC(=O)O [Gly–Gly–Gly] (H-Gly-Gly-Gly-OH; N-terminus and C-terminus assumed)
Asked: Place the items in sequence of falling pKi. Put the labels in the requested order and list them out.
Given back: 1, 2, 3
